Entry source: PubChem BioAssay (NCATS)

- TARGET: Guanidinoacetate N-methyltransferase (Homo sapiens)
- ASSAY NAME: Confirmatory Screen for Target Class Profiling of Small Molecule Inhibitors of Methyltransferases (AID 1745852); also: % is scaled to controls: 0 for no effect and ±100 for the full control effect
- CONDITION NOTES: MTase-Glo luminescence, SAH detection, recombinant enzyme; at 57.3 µM (top of the series) unless noted
Readings of activity change, negative = inhibition for the listed compounds
Please give a number only; it is taken to be in %.

Answered examples (5):
CC1=C(C(=O)OCc2ccccc2)C(c2ccc(-c3ccccc3)cc2)NC(=O)N1CCCCCC(=O)O (stereo not drawn); 0
CC(C)c1cccc2c(-c3ccccc3)cc(-c3ccc(-c4ccc(C(=O)O)cc4)[nH]3)nc12; -5
O=C(c1ccccc1)c1ccc2nc(NC(=O)c3csc(C4CCN(c5ncnc6ccsc56)CC4)n3)[nH]c2c1; 0.0948
CCS(=O)(=O)N1CCN(c2ccc(Nc3ncc(C(N)=O)c(NC4CC4)n3)cc2)CC1; 0
CNS(=O)(=O)CC1CCC(N(C)c2ncnc3[nH]ccc23)CC1 (stereo not drawn); -4.35

Field activity change, negative = inhibition (Guanidinoacetate N-methyltransferase (Homo sapiens)), entry `CN1CCN(C(=O)c2ccc3cc(CCNc4ncnc5ccc(C#N)cc45)ccc3c2)CC1` : -3.33

Lab entry: Guanidinoacetate N-methyltransferase (Homo sapiens) assay, compound `CN(C)C/C=C/C(=O)Nc1cccc(C(=O)Nc2ccc(Nc3nccc(-c4cccnc4)n3)cc2)c1` , activity change, negative = inhibition = 0.0986

Per the reported Guanidinoacetate N-methyltransferase (Homo sapiens) data, `N#Cc1cnc2cnc(NCc3cccnc3)cc2c1Nc1ccc(F)c(Cl)c1` has activity change, negative = inhibition of -3.05

----------
- System: C33A
- ASSAY NAME: Primary qHTS to identify gynecologic anti-cancer compounds using libraries of approved drugs and bioactive compounds (AID 1345084); also: nearly all actives have a fitted effect of over 55% in size; as to activity change, negative = cytotoxicity: % is scaled to controls: 0 for no effect and ±100 for the full control effect
- CONDITION NOTES: Gynecologic cancer cell panel viability, ATPlite luminescence, 48 h; series mostly up to 57.5 µM
Inconclusive results are not listed. Activity calls are given as the source filed them. The call rests on the fitted dose curve; in most records, active means well fitted cell-killing curve with a large enough effect; inconclusive means small, poorly fitted or top-dose-only effect, or effect the other way; inactive means flat fitted curve, though single readings scatter.
ASSAY METRIC: activity change, negative = cytotoxicity

C=C(C)C1Cc2cc(C(=O)OC3OC(CO)C(O)C(O)C3O)ccc2O1 (stereo not drawn); inactive
NCc1ccc(Nc2ncc(F)c(Nc3ccccc3)n2)cc1; inactive
CC(=O)c1c(O)cc(O[C@@H]2O[C@H](CO)[C@@H](O)[C@H](O)[C@H]2O)cc1O; inactive

----------
- ASSAY NAME: Primary qHTS for inhibitors of nuclear receptor binding SET domain protein 2 (NSD2) in an RCH-ACV wild type WT cells (2C) (AID 1645877); also: nearly all actives have a fitted effect of over 70% in size
- CONDITION NOTES: RCH-ACV (leukaemia line) NSD2 WT (2C) viability, CellTiter-Glo, 72 h; series mostly up to 44.9 µM
- Excerpt: Assay Provider: Jonathan D. Licht, MD University of Florida College of Medicine, Gainesville, FL Mutations in epigenetic regulators are common in relapsed pediatric acute lymphoblastic leukemia (ALL). Here, we uncovered the mechanism underlying the relapse of ALL driven by an activating mutation of the NSD2 histone methyltransferase (p.E1099K). […] Correction of this mutation restored glucocorticoid sensitivity. […]
Records with an inconclusive call do not appear. Activity calls are given as the source filed them. The call rests on the fitted dose curve; in most records, active means well fitted inhibition curve with a large enough effect; inconclusive means small, poorly fitted or top-dose-only effect; inactive means no such curve, though single readings can be large or run the other way.
Output constraint: value belongs to label 1 = active, label 0 = inactive

Record excerpt, results attached:
C=C1CCC2C(C(C)(C)O)CCC2(C)CC(O)C(=C)CCC1O (stereo unspecified); label 1
Cc1nc([C@](C)(O)CO)sc1-c1cnc(N)c(O[C@H](C)c2cc(F)ccc2-n2nccn2)c1; label 1
COC(=O)Cc1cc2c(c([N+](=O)[O-])c1)N(C(=O)CC[C@H](N)C(=O)O)CC2; label 0
C[S+](CC[C@H](N)C(=O)[O-])C[C@H]1O[C@@H](n2cnc3c(N)ncnc32)[C@H](O)[C@@H]1O (stereo partly specified); label 0
C[C@@H]1O[C@@H](O[C@H]2[C@@H]3C=CO[C@@H](O[C@@H]4O[C@H](CO)[C@@H](O)[C@H](O)[C@H]4O)[C@@H]3[C@@]3(CO)O[C@@H]23)[C@H](OC(=O)/C=C/c2ccccc2)[C@H](O)[C@H]1O; label 0

Input: Any idea what this test logged for `C=C1CC[C@@H]2[C@](C)(CO[C@@H]3O[C@H](CO)[C@@H](O)[C@H](O)[C@H]3O)[C@H](O)CC[C@@]2(C)[C@@H]1C/C=C1/C(=O)OC[C@H]1O` ?
Output: label 0

Input: Can you look up the reported call for CC1=CC2/C=C(\C)CC[C@@H](O)[C@@H](O)[C@@H]3O[C@@H]3C(=O)[C@]23C(=O)N[C@@H](CC(C)C)[C@@H]3[C@@H]1C (stereo partly specified) for me?
Output: label 0

Input: Just curious, what result did CC1=CCC(C(C)(C)O[C@@H]2O[C@H](CO[C@@H]3O[C@@H](C)[C@H](O)[C@@H](O)[C@H]3O)[C@@H](O)[C@H](O)[C@H]2O)CC1 (stereo partly specified) get here?
Output: label 0

Input: Which outcome did this test record for the compound CC(=O)/C=C/[C@H]1[C@](C)(O)[C@@H](O)[C@H](OC(C)=O)C2C(C)(C)CCC[C@@]21C (stereo partly specified) ?
Output: label 0

----------
- System: HaCat
- ASSAY NAME: Cytotoxic Profiling of Annotated Libraries Using Quantitative High-Throughput Screening (AID 1296008); also: nearly all actives have a fitted effect of over 60% in size
- CONDITION NOTES: Five cell lines viability, CellTiter-Glo ATP luminescence, 48-72 h
- Experimental: Cell-based phenotypic screening is a commonly used approach to discover biological pathways, novel drug targets, chemical probes and high-quality hit-to-lead molecules. […] A pintool (Kalypsys) was used to transfer 23 nL of compound solution to the 1536-well assay plates. […] Plates were left at room temperature for 10 min before imaging the ATP-coupled luminescence using a ViewLux microplate imager (PerkinElmer, Waltham, MA).
Results filed as inconclusive are left out. Active and inactive are the calls of the source. The call rests on the fitted dose curve; in most records, active means well fitted inhibition curve with a large enough effect; inconclusive means small, poorly fitted or top-dose-only effect; inactive means flat fitted curve, though single readings scatter.
Assign a class; possible classes are 1.0 for active, 0.0 for inactive

CC(C)c1cc(C(=O)N2CC[C@H](NC(=O)C3CC3)C2)n[nH]1; 0.0
C=CC(=O)Nc1cc(Nc2nccc(-c3c[nH]c4ccccc34)n2)c(OC)cc1N(C)CCN(C)C; 1.0

Input: What did the test return for `NC[C@@](O)(c1ccc(Cl)cc1)c1ccc(-c2cn[nH]c2)cc1` ?
Output: 1.0

Input: State the result this test recorded for `C=C1CN(Cc2ccc(C(=O)Nc3ccccc3N)cc2)C(=O)c2ccccc21` .
Output: 1.0

Input: GET /call?item= `Cc1cc(NC(=O)Nc2ccc(F)c(F)c2)n(-c2ccccc2)n1` returns the recorded outcome of this test.
Output: 0.0

Input: What did the test return for `COC(=O)N1CCC(n2ncc3c(N4CCOCC4)nc(-c4ccc(NC(=O)Nc5ccc(CO)cc5)cc4)nc32)CC1` ?
Output: 1.0

Input: Name the outcome recorded for `COc1cc(N2CCC(N3CCN(C)CC3)CC2)ccc1Nc1ncc(Cl)c(-c2c[nH]c3ccccc23)n1` in the assay.
Output: 1.0

----------
- Test system: Tov-21-G
- ASSAY NAME: Primary qHTS to identify gynecologic anti-cancer compounds using libraries of approved drugs and bioactive compounds (AID 1345084); also: nearly all actives have a fitted effect of over 55% in size
- CONDITION NOTES: Gynecologic cancer cell panel viability, ATPlite luminescence, 48 h; series mostly up to 57.5 µM
Inconclusive results are not listed. Active and inactive are the calls of the source. Calls follow the shape of the dose curve; as a rule, active = well fitted cell-killing curve with a large enough effect; inconclusive = small, poorly fitted or top-dose-only effect, or effect the other way; inactive = flat fitted curve, though single readings scatter.
I would appreciate it if you answered using one of these outcomes: 1 for active, -1 for inactive

Known results for compounds:
C[C@@]1(O)[C@H](O)[C@@H](CO)O[C@H]1n1ccc(N)nc1=O; -1
C=CC(C)(C)c1[nH]c2cc3c(cc2c1CC1NC(=O)C2=CCCN2C1=O)C=CC(C)(C)O3 (stereo unspecified); -1
Nc1nc2c(ncn2[C@@H]2O[C@H](CO)[C@@H](O)[C@H]2O)c(=O)[nH]1; -1
C[C@@H]1C(=O)O[C@H]2[C@H](O)C34[C@H]5C[C@@H](C(C)(C)C)C36[C@@H](OC(=O)[C@@H]6O)O[C@@]4(C(=O)O5)[C@@]12O (stereo partly specified); -1
O=C(OCC1=CC(O)C2C=CO[C@@H](O[C@@H]3O[C@H](CO)[C@@H](O)[C@H](O)[C@H]3O)C12)c1ccccc1 (stereo partly specified); -1
CCN(Cc1cccnc1)C(=O)CN(c1ccc(OC)nc1)S(=O)(=O)c1ccccc1C; -1
C=C(CO)C12OC1C1(C)C(=CC2=O)C(O)C(O)CC1C (stereo unspecified); -1
Cc1ccc(C(=O)Nc2noc3ccccc23)cc1; 1

Input: Which outcome did this test record for the compound CC(=O)OC1C(O)CC2(C)C(CCC(C)C23Cc2c(O)cc(CO)c(C=O)c2O3)C1(C)C (stereo unspecified) ?
Output: -1

Input: Please state the recorded outcome for this compound: COC(=O)C1=COC(OC2OC(CO)C(O)C(O)C2O)C2C1C=CC2(O)CO (stereo unspecified)
Output: -1

----------
Documented max response across a set of compounds
- System: NIH3T3
- ASSAY NAME: Cytotoxic Profiling of Annotated Libraries Using Quantitative High-Throughput Screening (AID 1296008); also: nearly all actives have a fitted effect of over 60% in size; as to max response: % is scaled to controls: 0 for no effect and ±100 for the full control effect
- CONDITION NOTES: Five cell lines viability, CellTiter-Glo ATP luminescence, 48-72 h; stronger effect = lower value
Records with an inconclusive call do not appear.
Hi! Could you send only the number? It should be in %, unit omitted.

Worked cases, answers included:
CCc1c(C)nc2c(-c3cnn(-c4cc(CO)ccn4)c3)c[nH]n2c1=O; -6.61
C=CC(C)(C)c1[nH]c2ccccc2c1C[C@@H]1NC(=O)[C@H](Cc2c[nH]c3ccccc23)NC1=O; 0.0013
O=C(O)CCCCCC[C@H]1C(=O)NC(=O)N1CC[C@@H](O)C1CCCCC1; -5.35
CC1(C)CCC(C)(C)c2cc(C3(c4ccc(C(=O)O)cc4)OCCO3)ccc21; -24.2
CC(=O)O[C@H]1C[C@@](O)(C(C)C)C2[C@@H](OC(=O)c3ccc(O)cc3)C[C@@]3(C)O[C@H]3C[C@]21C (some centres not stated); -4.8

Reported max response (NIH3T3) for entry C[C@]12C=C[C@@]3(CCC4[C@](C)(CO)CCC[C@@]4(C)C3CC1)C2 (some centres not stated) is -6.89

Entry OC1CCC(Nc2ncc3nc(Nc4c(F)cc(F)cc4F)n([C@H]4CCOC4)c3n2)CC1 (some centres not stated) ; assay system NIH3T3; max response recorded at 3.11
